- target_or_test_system: furin, P09958;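 also: purified furin at 1:10 enzyme:substrate in 50 mM HEPES pH 7.5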
- Sequence (P09958 whole entry): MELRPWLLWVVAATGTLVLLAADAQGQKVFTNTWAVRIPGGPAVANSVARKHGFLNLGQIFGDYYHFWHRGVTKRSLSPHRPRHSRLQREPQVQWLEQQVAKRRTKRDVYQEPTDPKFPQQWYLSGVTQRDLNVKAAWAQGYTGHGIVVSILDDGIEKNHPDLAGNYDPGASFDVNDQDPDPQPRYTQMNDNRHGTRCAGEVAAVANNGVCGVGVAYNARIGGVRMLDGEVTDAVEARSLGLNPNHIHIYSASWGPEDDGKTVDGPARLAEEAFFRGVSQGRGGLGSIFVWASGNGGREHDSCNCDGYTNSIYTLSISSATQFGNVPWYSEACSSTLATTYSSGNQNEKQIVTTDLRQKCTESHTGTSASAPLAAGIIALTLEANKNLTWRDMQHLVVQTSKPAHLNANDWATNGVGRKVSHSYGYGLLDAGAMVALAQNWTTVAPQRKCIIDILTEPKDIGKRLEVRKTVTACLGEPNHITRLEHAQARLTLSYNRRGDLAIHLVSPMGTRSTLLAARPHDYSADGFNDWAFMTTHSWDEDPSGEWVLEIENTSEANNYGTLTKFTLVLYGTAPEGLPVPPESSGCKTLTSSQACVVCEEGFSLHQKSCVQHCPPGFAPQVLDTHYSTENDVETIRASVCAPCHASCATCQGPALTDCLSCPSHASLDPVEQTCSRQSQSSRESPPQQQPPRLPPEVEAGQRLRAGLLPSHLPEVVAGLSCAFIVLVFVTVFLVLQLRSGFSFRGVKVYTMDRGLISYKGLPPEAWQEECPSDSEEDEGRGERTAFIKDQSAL
- experiment_summary: furin cleavage Z-score vs untreated control; higher = more cleavage, active = 3.5 or more, inactive = 1 or less, 8 variable residues between constant flanks
- stated_conditions: 7.5 min
This is one part of the list. The true hit rate is not given.
Possible outcomes: Y for active, N for inactive

{"sequence_text": "CAESVVCCSMAGNASASA [HC2137]", "cat": "N"}
{"sequence_text": "CARKKKAWIYAGNASASA [FS-2559]", "cat": "N"}
{"sequence_text": "CATGRGKPGIAGNASASA [HC906]", "cat": "N"}
{"sequence_text": "CATTPCSGSEAGNASASA [HC1932]", "cat": "N"}
{"sequence_text": "CAADAVDGAGAGNASASA [CS10]", "cat": "N"}
{"sequence_text": "CAYDVVCCSMAGNASASA [HC2109]", "cat": "N"}
{"sequence_text": "CATGRRKGRSAGNASASA [FS-1290]", "cat": "Y"}
{"sequence_text": "CAVQPEKGGRAGNASASA [HC1444]", "cat": "N"}
{"sequence_text": "CAEEPCHRPSAGNASASA [HC2332]", "cat": "N"}
{"sequence_text": "CATGCVVIVGAGNASASA [HC999]", "cat": "N"}
{"sequence_text": "CANEITLTHPAGNASASA [HC977]", "cat": "N"}
{"sequence_text": "CAITAYAQQTAGNASASA [HC675]", "cat": "N"}
